Tested on: 786-0 renal
assaySummary: NCI tumour cell line growth inhibition, 48 h; in the data active = GI50 below about 0.43 µM; inactive = the rest
In this exercise, the only acceptable responses are t (active), f (inactive)

Worked set:
[[record]]
structureassmiles = "COc1ccc2c(c1)cn1c3ccc(OC)cc3[nH]c(=O)c21"
categorylabel = "t"

[[record]]
structureassmiles = "Cc1cc(=O)[nH]c2c1C(=O)C(=O)C=C2"
categorylabel = "f"

[[record]]
structureassmiles = "Clc1ccc2c(NCCCNCc3ccc4c(c3)OCO4)ccnc2c1"
categorylabel = "f"

[[record]]
structureassmiles = "O=C1/C=C/[C@@H](O)[C@@H]2C[C@@H](O)C[C@H]2/C=C/CCCCO1"
categorylabel = "t"

[[record]]
structureassmiles = "C=C(C=O)[C@@H]1CC=C(C=O)CC1"
categorylabel = "f"


Could you check what this test reported for Cn1cc(C2=C(c3cn(CCCN/C(N)=N\[N+](=O)[O-])c4ccccc34)C(=O)NC2=O)c2ccccc21 ?
f

Could you check what this test reported for O=C(Nc1ccc(-n2cc(-c3ccncc3)c(-c3ccc(Cl)c(O)c3)n2)cc1)c1ccc(Cl)c(C(F)(F)F)c1 ?
t

###

Tested on: SNB-19 CNS
assaySummary: NCI tumour cell line growth inhibition, 48 h
assayReadout: TGI

molecule Nc1nc(-c2ccccc2Cl)cc(-c2ccc(Cl)cc2Cl)n1 , TGI observed: > 100 µM

molecule O=c1[nH]nc(-c2ccccc2)c2[nH]c3c(c12)CCCc1ccccc1-3 , TGI observed: 26.8 µM

molecule O=c1c2ccc(Br)cc2nc(-c2ccccc2)n1NC1OC(CO)C(O)C(O)C1O (stereo not given) , TGI observed: > 100 µM

molecule COC(=O)C(Cc1cc(OC)c(OC)c(OC)c1)(NC(=O)c1ccccc1)P(=O)(OC)OC (stereo not given) , TGI observed: > 100 µM

###

Tested on: OVCAR-5 ovarian
assaySummary: NCI tumour cell line growth inhibition, 48 h
TGI by entry:

A selection of reference data follows.
[[record]]
compound = "O=c1n(CC2CO2)c2ccccc2n1CC1CS1 (configuration not stated)"
assayreadout = "TGI"
resultvalue = "> 100 µM"

[[record]]
compound = "Nc1nc(=O)n(C2CC(O)C(CO)O2)c2nc(-c3ccc(-c4ccccc4)cc3)cnc12 (configuration not stated)"
assayreadout = "TGI"
resultvalue = "> 100 µM"

[[record]]
compound = "CNC(=S)c1nnsc1N"
assayreadout = "TGI"
resultvalue = "> 100 µM"


compound Fc1cccc(C2SCc3nc4ccccc4n32)c1 (configuration not stated) , TGI observed: 79.3 µM

compound COC(=O)Cc1c(-c2c(CC(=O)OC)c3ccccc3n2C2OC(COC3OC(COC(C)=O)C(OC(C)=O)C(OC(C)=O)C3OC(C)=O)C(O)C(O)C2O)[nH]c2ccccc12 (configuration not stated) , TGI observed: > 100 µM

compound COc1ccc(-c2c3c(n(C4OC(COC(C)=O)C(OC(C)=O)C(OC(C)=O)C4OC(C)=O)c(=S)c2C#N)CCCC3)cc1 (configuration not stated) , TGI observed: > 100 µM

compound O=C1COCCN1c1ccc(NCc2cn(Cc3ccc(F)cc3)c3ccccc23)cc1 , TGI observed: 0.231 µM

###

Tested on: NCI-H23 lung
assaySummary: NCI tumour cell line growth inhibition, 48 h
TGI by entry:

A selection of reference data follows.
[[record]]
compound = "CCN(CC)[C@@H]1c2cc3c(cc2C(c2cc(OC)c(O)c(OC)c2)C2C(=O)CO[C@@H]21)OCO3 (stereo not given in full)"
resultvalue = "> 100 µM"

[[record]]
compound = "CC(=O)Nc1ccc2cc3c(nc2n1)c1cccnc1n3S(=O)(=O)c1ccccc1"
resultvalue = "> 100 µM"

[[record]]
compound = "COc1cc(C2C(C(=O)Nc3ccccc3C)=C(C)NC(C)=C2C(=O)Nc2ccccc2C)ccc1O"
resultvalue = "> 100 µM"

[[record]]
compound = "COc1cc(CNC(=O)CCCCCCCCCCSC#N)ccc1O"
resultvalue = "43 µM"


Read the next record carefully.
compound FC(F)(F)c1ccc(N=NN2CCCC2)cc1 , TGI observed: > 100 µM
